Kindly state logEC50 (cAMP) for each of the entries shown.
Measured Target: T1, human GLP-2 receptor (human, UniProt O95838 1-553)
T1 sequence (looked up): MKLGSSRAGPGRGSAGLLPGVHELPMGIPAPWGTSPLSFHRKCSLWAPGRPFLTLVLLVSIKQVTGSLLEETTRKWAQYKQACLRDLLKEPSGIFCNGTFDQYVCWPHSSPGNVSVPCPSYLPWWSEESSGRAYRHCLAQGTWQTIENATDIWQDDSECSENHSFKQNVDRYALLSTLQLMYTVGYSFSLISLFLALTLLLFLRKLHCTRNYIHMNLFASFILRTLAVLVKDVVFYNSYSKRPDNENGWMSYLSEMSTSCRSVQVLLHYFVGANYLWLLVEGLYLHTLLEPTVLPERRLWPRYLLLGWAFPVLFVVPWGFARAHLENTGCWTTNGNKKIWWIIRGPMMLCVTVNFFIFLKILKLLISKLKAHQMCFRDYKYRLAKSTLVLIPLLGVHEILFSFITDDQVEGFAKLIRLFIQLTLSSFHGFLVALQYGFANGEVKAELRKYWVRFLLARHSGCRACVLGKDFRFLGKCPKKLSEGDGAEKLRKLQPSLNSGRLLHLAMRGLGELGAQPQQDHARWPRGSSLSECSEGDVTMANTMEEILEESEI
Protocol Summary: cell-based or functional assay
Ends that are not written are not given here. * marks the point of attachment. Palmitoyl = CCCCCCCCCCCCCCCC(=O)*
Format: numeric value only, no unit, no commentary.

GET /value?item= HADGTFSSDYSTILDNLAARDFINWLIQTK(Palmitoyl)ITD [GIP-GLP-2 co-agonist 23] &field=logEC50 (cAMP) returns -8.85

GET /value?item= HADGTFISDYSTILDNLAARDFINWLIQTKGKKNDWKHNITQ [GIP-GLP-2 co-agonist 34] &field=logEC50 (cAMP) returns -8.94

GET /value?item= HADGTFISDYSKILDNLAARDFINWLIQTKITK [GIP-GLP-2 co-agonist 24] &field=logEC50 (cAMP) returns -9.13

GET /value?item= HADGTFSSDYSTILDNLAARDFINWLIQTKITD (not fully specified (residue 1, N-terminus); also: C16 acyl group on His 1 (attachment site not given here)) [GIP-GLP-2 co-agonist 22] &field=logEC50 (cAMP) returns -8.88

GET /value?item= HADGTFSSDYSTILDNLAAKDFINWLIQTKITD [GIP-GLP-2 co-agonist 20] &field=logEC50 (cAMP) returns -8.92

GET /value?item= HADGTFISDYSTILDNLKARDFINWLIQTKITK [GIP-GLP-2 co-agonist 27] &field=logEC50 (cAMP) returns -9.25
